- method-description: Particle size, PdI and zeta potential of mRNA-encapsulating LNPs by dynamic light scattering (Experimental Example 6)
- Assay type: physicochemical
- setup-conditions: mRNA-encapsulating LNP, cationic lipid:DOPC:Chol=49:7.5:42.5:1, dispersion in TBS (Tables 8-1, 8-2)
recorded-endpoint: zeta potential (mV)

Examples with their reported zeta potential (mV) follow.
## Input What measured zeta potential (mV) goes with CCCCCCCC(=O)OC(CC=CCCCCCCCC(=O)Oc1ccc(CC(=O)OCCC2CCN(CCSSCCN3CCC(CCOC(=O)Cc4ccc(OC(=O)CCCCCCCC=CCC(CCCCCC)OC(=O)CCCCC)cc4)CC3)CC2)cc1)CCCCCC (stereo not shown) ?
## Output -3.44

## Input What measured zeta potential (mV) goes with CCCCCCCC/C=C\CCCCCCCC(=O)Oc1ccc(CC(=O)OCCC2CCN(CCSSCCN3CCC(CCOC(=O)Cc4ccc(OC(=O)CCCCCCCCCCC(CCCCCC)OC(=O)CCCCCCC)cc4)CC3)CC2)cc1 (stereo not shown) ?
## Output -3.79

## Input What measured zeta potential (mV) goes with CCCCCCCC/C=C\CCCCCCCC(=O)Oc1ccc(CC(=O)OCCC2CCN(CCSSCCN3CCC(CCOC(=O)Cc4ccc(OC(=O)CCCCCCCC(OC(=O)CC)C(CCCCCCCC)OC(=O)CC)cc4)CC3)CC2)cc1 (stereo not shown) ?
## Output -4.45

P. CCCCCC/C=C\COC(=O)CCCC(=O)Oc1ccc(CC(=O)OCCC2CCN(CCSSCCN3CCC(CCOC(=O)Cc4ccc(OC(=O)CCCCCCC/C=C\CCCCCCCC)cc4)CC3)CC2)cc1
Q. CCCCCCCC/C=C\CCCCCCCC(=O)Oc1ccc(CC(=O)OCCC2CCN(CCSSCCN3CCC(CCOC(=O)Cc4ccc(OC(=O)CCCCCCC/C=C\CCCCCCCC)cc4)CC3)CC2)cc1 [Comparative Example, reference compound]
## Input Given the two records P and Q , choose the one whose zeta potential (mV) value is lower. Answer by stating the label of the chosen item.
## Output P

====

- method-description: Particle size, PdI and zeta potential of mRNA-encapsulating LNPs by dynamic light scattering (Experimental Example 2)
- Type: physicochemical
- setup-conditions: mRNA-encapsulating LNP, cationic lipid:DOPC:Chol = 50:10:40 (molar ratio) + DMG-PEG2k about 1 mol; Zetasizer Nano
recorded-endpoint: zeta potential (mV)

## Input What measured zeta potential (mV) goes with CCCCCCCC/C=C\CCCCCCCC(=O)Oc1ccc(CC(=O)OCCC2CCN(CCSSCCN3CCC(CCOC(=O)Cc4ccc(OC(=O)CCCC(=O)OC[C@H](COC(=O)CCCCCCC)OC(=O)CCCCCCC)cc4)CC3)CC2)cc1 ?
## Output -4.68

## Input What measured zeta potential (mV) goes with CCCCCCCC/C=C\CCCCCCCC(=O)Oc1ccc(CC(=O)OCCC2CCN(CCSSCCN3CCC(CCOC(=O)Cc4ccc(OC(=O)CCCC(=O)OC[C@H](COC(=O)CCCCCC)OC(=O)CCCCCC)cc4)CC3)CC2)cc1 ?
## Output -2.80

## Input What measured zeta potential (mV) goes with CCCCCC/C=C\COC(=O)CCCC(=O)Oc1ccc(CC(=O)OCCC2CCN(CCSSCCN3CCC(CCOC(=O)Cc4ccc(OC(=O)CCCCCCC/C=C\CCCCCCCC)cc4)CC3)CC2)cc1 ?
## Output -3.98
